Measured cell viability values are reported for all entries that follow.
system: SEM cells; assay: cell viability relative to DMSO control; higher = less cytotoxic; details: HPLM + 10% dialyzed FBS; 48 h; 0.19 µM

Compound	cell viability
COc1cc2c(Nc3ccc(NC(=O)c4ccccc4)cc3)ncnc2cc1OCCCN1CCOCC1	133%
O=C/1\C=C(/OC(=C1)/C2=C3SC4=C(SC3=CC=C2)C=CC=C4)N5CCOCC5	105%
O=C1CSC(=O)N1C(CCc1ccncc1)COc1ccc(-c2cccc([N+](=O)[O-])c2)cc1 (configuration not stated)	92.4%
Cc1cc2c(C(C)C)c(O)c(O)c(C=O)c2c(O)c1-c1c(C)cc2c(C(C)C)c(O)c(O)c(C=O)c2c1O	101%
O=[N+]([O-])c1cn2c(n1)OC[C@@H](OCc1ccc(OC(F)(F)F)cc1)C2	101%
O=C1Nc2ccccc2/C1=C1\Nc2ccccc2C1=O	64.2%
CC[C@H]1OC(=O)[C@H](C)[C@@H](O[C@H]2C[C@@](C)(OC)[C@@H](O)[C@H](C)O2)[C@H](C)[C@@H](O[C@@H]2O[C@@H](C)C[C@H](N(C)C)[C@H]2O)[C@](C)(O)C[C@@H](C)C(=O)[C@H](C)[C@@H](O)[C@]1(C)O	85.6%

----------
test system: SEM cells; assay: cell viability relative to DMSO control; higher = less cytotoxic; conditions: HPLM + 10% dialyzed FBS; 48 h; 0.0632 µM
Measured cell viability values are reported for all entries that follow.

Smiles text	Readout units	cell viability
CNC(=O)c1ccc(Nc2ncc(C(F)(F)F)c(NCc3nccnc3N(C)[S+](C)(=O)[O-])n2)cc1	%	125
Cn1c2ccccc2c2c3c(c4c5ccccc5n(CCC#N)c4c21)CNC3=O	%	111
Cc1ccc(-n2nc(C(C)(C)C)cc2NC(=O)Nc2ccc(OCCN3CCOCC3)c3ccccc23)cc1	%	86.7
C[C@H]([C@H](O)CCC(C)(C)O)[C@H]1CC[C@@]2(O)C/3=C/C(=O)[C@@H]4C[C@@H](O)[C@@H](O)C[C@]4(C)[C@H]3CC[C@]12C	%	103

----------
tested on: P12-Ichikawa; experiment: cell viability relative to DMSO control; higher = less cytotoxic; conditions: RPMI 5 mM glucose + 10% dialyzed FBS; 48 h; 0.569 µM
Measured cell viability values are reported for all entries that follow.

Compound	cell viability, %
O=C1NC(=O)[C@@H](c2cn3c4c(cccc24)CCC3)[C@@H]1c1c[nH]c2ccccc12	109
CC(C)(C)/[N+]([O-])=C/c1ccc([S+](=O)([O-])[O][Na])cc1[S+](=O)([O-])[O][Na]	124
ClC1=CC=C(CCCOC/2=N/NC(=O)C(=C2NCC3=CN=CC=C3)/Br)C=C1	106
NC1CCC(N[C@@H]2C[C@H]2c2ccccc2)CC1 (some centres undefined)	103
CN(N=O)C(=O)N[C@H]1C(O)OC(CO)[C@@H](O)[C@@H]1O (some centres undefined)	80.2
Cc1cc(O)c2c3c4c(cc(O)c13)C(C)(C)C(=O)c1c(O)cc(O)c(c1-4)C2=O	111
CC(C)OC(=O)CCC/C=C\C[C@@H]1[C@@H](/C=C/[C@@H](O)COc2cccc(C(F)(F)F)c2)[C@H](O)C[C@@H]1O	124
O=[N+]([O-])c1cn2c(n1)OC[C@@H](OCc1ccc(OC(F)(F)F)cc1)C2	113
COc1ccc(Cc2nccc3cc(OC)c(OC)cc23)cc1OC	121
